Tested on: COR-L23
Test: relative viability (nuclei count vs DMSO), 5 days (fraction); higher = more cells survive
Details: first compound 0.03162 µM
Could you please mark condition met for values of relative viability below 0.5 and condition not met for values at or above it?

Query :: For this compound, is relative viability lower than 0.5? NC(=O)Nc1cc(-c2cccc(F)c2)sc1C(=O)N[C@H]1CCCNC1 [AZD7762] + Cc1nc(NC(=O)N2CCC[C@H]2C(N)=O)sc1-c1ccnc(C(C)(C)C(F)(F)F)c1 [Alpelisib] (partner 2 µM)
Result :: condition not met

Query :: For this compound, is relative viability lower than 0.5? NC(=O)Nc1cc(-c2cccc(F)c2)sc1C(=O)N[C@H]1CCCNC1 [AZD7762] + CS(=O)(=O)N1CCN(Cc2cc3nc(-c4cccc5[nH]ncc45)nc(N4CCOCC4)c3s2)CC1 [Pictilisib] (partner 1 µM)
Result :: condition not met

Query :: For this compound, is relative viability lower than 0.5? NC(=O)Nc1cc(-c2cccc(F)c2)sc1C(=O)N[C@H]1CCCNC1 [AZD7762] + CC(C)C[C@H](NC(=O)[C@H](Cc1ccccc1)NC(=O)c1cnccn1)B(O)O [Bortezomib] (partner 0.002 µM)
Result :: condition not met

Query :: For this compound, is relative viability lower than 0.5? NC(=O)Nc1cc(-c2cccc(F)c2)sc1C(=O)N[C@H]1CCCNC1 [AZD7762] + N=C(N)NC(=N)NCCc1ccccc1 [Phenformin] (partner 250 µM)
Result :: condition met

Query :: For this compound, is relative viability lower than 0.5? NC(=O)Nc1cc(-c2cccc(F)c2)sc1C(=O)N[C@H]1CCCNC1 [AZD7762] + Nc1ncn([C@H]2C[C@H](O)[C@@H](CO)O2)c(=O)n1 [Decitabine] (partner 2 µM)
Result :: condition not met

Query :: For this compound, is relative viability lower than 0.5? NC(=O)Nc1cc(-c2cccc(F)c2)sc1C(=O)N[C@H]1CCCNC1 [AZD7762] + O=C(CCCCCCC(=O)Nc1ccccc1)NO [Vorinostat] (partner 1 µM)
Result :: condition met

---

System: NCI-H838
Assay: relative viability (nuclei count vs DMSO), 5 days (fraction); higher = more cells survive
Settings: first compound 0.08 µM
For each record, write down the corresponding relative viability.
// print number alone

Query :: What does the data say about its relative viability? Entry: Oc1nc(-c2ccc(C(F)(F)F)cc2)nc2c1CSCC2 [XAV939] + Cc1nc(NC(=O)N2CCC[C@H]2C(N)=O)sc1-c1ccnc(C(C)(C)C(F)(F)F)c1 [Alpelisib] (partner 2 µM)
Result :: 1.08

Query :: What does the data say about its relative viability? Entry: Oc1nc(-c2ccc(C(F)(F)F)cc2)nc2c1CSCC2 [XAV939] + COc1cccc2cc(-c3nc([C@H]4CC[C@H](C(=O)O)CC4)n4ncnc(N)c34)[nH]c12 [OSI-027] (partner 0.5 µM)
Result :: 0.375

Query :: What does the data say about its relative viability? Entry: C=C1C(=O)O[C@@H](CCCCCCCC)[C@@H]1C(=O)O [C-75] + CCNC(=O)c1noc(-c2cc(C(C)C)c(O)cc2O)c1-c1ccc(CN2CCOCC2)cc1 [Luminespib] (partner 0.01 µM)
Result :: 0.325

Query :: What does the data say about its relative viability? Entry: Oc1nc(-c2ccc(C(F)(F)F)cc2)nc2c1CSCC2 [XAV939] + Cc1nc(Nc2ncc(C(=O)Nc3c(C)cccc3Cl)s2)cc(N2CCN(CCO)CC2)n1 [Dasatinib] (partner 0.075 µM)
Result :: 0.217

Query :: What does the data say about its relative viability? Entry: C=C1C(=O)O[C@@H](CCCCCCCC)[C@@H]1C(=O)O [C-75] + CS(=O)(=O)CCNCc1ccc(-c2ccc3ncnc(Nc4ccc(OCc5cccc(F)c5)c(Cl)c4)c3c2)o1 [Lapatinib] (partner 2 µM)
Result :: 1.01

---

Test system: UMC-11
Assay: relative viability (nuclei count vs DMSO), 5 days (fraction); higher = more cells survive
Conditions: first compound 2.53 µM
For each record, write down the corresponding relative viability.
// print number alone

Query :: What does the data say about its relative viability? Entry: Oc1nc(-c2ccc(C(F)(F)F)cc2)nc2c1CSCC2 [XAV939] + Nc1ncn([C@H]2C[C@H](O)[C@@H](CO)O2)c(=O)n1 [Decitabine] (partner 2 µM)
Result :: 0.26

Query :: What does the data say about its relative viability? Entry: C=C1C(=O)O[C@@H](CCCCCCCC)[C@@H]1C(=O)O [C-75] + CC1(C)CCC(c2ccc(Cl)cc2)=C(CN2CCN(c3ccc(C(=O)NS(=O)(=O)c4ccc(N[C@H](CCN5CCOCC5)CSc5ccccc5)c(S(=O)(=O)C(F)(F)F)c4)cc3)CC2)C1 [Navitoclax] (partner 0.5 µM)
Result :: 0.287

---

System: NCI-H522
Test: relative viability (nuclei count vs DMSO), 5 days (fraction); higher = more cells survive
Details: first compound 0.1581 µM
readout.kind: relative viability
// print number alone

Query :: What does the data say about its relative viability? Entry: CC1(C)CCC(c2ccc(Cl)cc2)=C(CN2CCN(c3ccc(C(=O)NS(=O)(=O)c4ccc(N[C@H](CCN5CCOCC5)CSc5ccccc5)c(S(=O)(=O)C(F)(F)F)c4)cc3)CC2)C1 [Navitoclax] + Cc1cc(Nc2cc(N3CCN(C)CC3)nc(Sc3ccc(NC(=O)C4CC4)cc3)n2)n[nH]1 [Tozasertib] (partner 0.1 µM)
Result :: 0.631

Query :: What does the data say about its relative viability? Entry: CC1(C)CCC(c2ccc(Cl)cc2)=C(CN2CCN(c3ccc(C(=O)NS(=O)(=O)c4ccc(N[C@H](CCN5CCOCC5)CSc5ccccc5)c(S(=O)(=O)C(F)(F)F)c4)cc3)CC2)C1 [Navitoclax] + O=C(CCCCCCC(=O)Nc1ccccc1)NO [Vorinostat] (partner 1 µM)
Result :: 0.878

Query :: What does the data say about its relative viability? Entry: CC1(C)CCC(c2ccc(Cl)cc2)=C(CN2CCN(c3ccc(C(=O)NS(=O)(=O)c4ccc(N[C@H](CCN5CCOCC5)CSc5ccccc5)c(S(=O)(=O)C(F)(F)F)c4)cc3)CC2)C1 [Navitoclax] + Cc1nc(Nc2ncc(C(=O)Nc3c(C)cccc3Cl)s2)cc(N2CCN(CCO)CC2)n1 [Dasatinib] (partner 0.075 µM)
Result :: 1.06

Query :: What does the data say about its relative viability? Entry: CC1(C)CCC(c2ccc(Cl)cc2)=C(CN2CCN(c3ccc(C(=O)NS(=O)(=O)c4ccc(N[C@H](CCN5CCOCC5)CSc5ccccc5)c(S(=O)(=O)C(F)(F)F)c4)cc3)CC2)C1 [Navitoclax] + Nc1ncn([C@H]2C[C@H](O)[C@@H](CO)O2)c(=O)n1 [Decitabine] (partner 2 µM)
Result :: 0.547

---

For each record, write down the corresponding relative viability.
Tested on: NCI-H1944
Assay: relative viability (nuclei count vs DMSO), 5 days (fraction); higher = more cells survive
Conditions: first compound 0.1 µM
// print number alone

Query :: What does the data say about its relative viability? Entry: NC(=O)Nc1cc(-c2cccc(F)c2)sc1C(=O)N[C@H]1CCCNC1 [AZD7762] + COc1cc2c(Oc3ccc(NC(=O)C4(C(=O)Nc5ccc(F)cc5)CC4)cc3F)ccnc2cc1OCCCN1CCOCC1 [Foretinib] (partner 0.25 µM)
Result :: 1.06

Query :: What does the data say about its relative viability? Entry: NC(=O)Nc1cc(-c2cccc(F)c2)sc1C(=O)N[C@H]1CCCNC1 [AZD7762] + Nc1ncn([C@H]2C[C@H](O)[C@@H](CO)O2)c(=O)n1 [Decitabine] (partner 2 µM)
Result :: 0.442

Query :: What does the data say about its relative viability? Entry: NC(=O)Nc1cc(-c2cccc(F)c2)sc1C(=O)N[C@H]1CCCNC1 [AZD7762] + CS(=O)(=O)N1CCN(Cc2cc3nc(-c4cccc5[nH]ncc45)nc(N4CCOCC4)c3s2)CC1 [Pictilisib] (partner 1 µM)
Result :: 0.4

Query :: What does the data say about its relative viability? Entry: NC(=O)Nc1cc(-c2cccc(F)c2)sc1C(=O)N[C@H]1CCCNC1 [AZD7762] + C[C@]1(O)C[C@@H](c2nc(-c3ccc4ccc(-c5ccccc5)nc4c3)c3c(N)nccn32)C1 [Linsitinib] (partner 1 µM)
Result :: 1.35

Query :: What does the data say about its relative viability? Entry: NC(=O)Nc1cc(-c2cccc(F)c2)sc1C(=O)N[C@H]1CCCNC1 [AZD7762] + COc1cccc2cc(-c3nc([C@H]4CC[C@H](C(=O)O)CC4)n4ncnc(N)c34)[nH]c12 [OSI-027] (partner 0.5 µM)
Result :: 0.53

Query :: What does the data say about its relative viability? Entry: NC(=O)Nc1cc(-c2cccc(F)c2)sc1C(=O)N[C@H]1CCCNC1 [AZD7762] + C[C@@H](Oc1cc(-c2cnn(C3CCNCC3)c2)cnc1N)c1c(Cl)ccc(F)c1Cl [Crizotinib] (partner 1 µM)
Result :: 1.2
